system: MALME-3M melanoma; assay: NCI tumour cell line growth inhibition, 48 h
parameter: log10 TGI (log10 of the value in µM)
The common logarithm of TGI in µM is what is listed.

In: Entry CCCCCCCCCCCCNCCCc1ccccc1 needs its log10 TGI filled in; supply it.
Out: 0.56

In: Entry CC(=O)NC1=C(NCCO)C(=O)c2ccccc2C1=O needs its log10 TGI filled in; supply it.
Out: 1.66

In: Entry COC(=O)/C=C1\C(=O)Nc2ccc(Br)cc21 needs its log10 TGI filled in; supply it.
Out: 0.89

In: Entry Cc1nc2ccccc2c(/C=C/c2ccc(F)cc2)c1C(=O)/C=C/c1ccccc1 needs its log10 TGI filled in; supply it.
Out: 0.70

In: Entry CC1(c2cccc(C(F)(F)F)c2)CC(c2cccc(C(F)(F)F)c2)=C(C#N)C(=C(C#N)C#N)N1 (stereo unspecified) needs its log10 TGI filled in; supply it.
Out: 1.51

The origin of these recorded values is PubChem BioAssay (NCI).
